- Test system: CCRIS mutagenicity, Ames/micronucleus/aberration tests
- measurement-protocol: CCRIS mutagenicity studies
- condition-details: Test System: AMES SALMONELLA TYPHIMURIUM; Strain/Indicator: TA100; Metabolic Activation: NONE; Method: PREINCUBATION
Calls of active or inactive are those of the source. How the calls were made is not given here.
Choose the fitting class; nothing outside 1.0 = active, 0.0 = inactive is accepted.

Consider the following illustrative entries.
{"mol": "CC(=O)c1cccc(N=[N+]([O-])c2ccc(N)c(C(C)=O)c2C)c1C", "qualitative-label": 0.0}
{"mol": "O=[N+]([O-])c1ccc2c3c1ccc1cccc(c13)[C@@H]1O[C@H]21", "qualitative-label": 1.0}
{"mol": "O=[N+]([O-])c1cccc2cc3ccccc3cc12", "qualitative-label": 1.0}
{"mol": "Oc1c(Cl)c(Cl)c(Cl)c(Cl)c1Cl", "qualitative-label": 0.0}
{"mol": "O=c1oc2c(O)c(O)cc3c(=O)oc4c(O)c(O)cc1c4c23", "qualitative-label": 0.0}

--- query ---
Query: Assay outcome for "C=CC[N+](C)(C)CC=C" : what was it?
Reply: 0.0

These measurements were taken from PubChem BioAssay AID1259407.
